protocol.text: cell viability in Huh7 cells, primary screen, cytotoxicity control for HCV replication inhibitor project, CellTiter-Glo luminescence, basal, 48 h (AID 1143);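 note: Huh7 hepatoma cells carrying a hepatitis C replication reporter with no stimulus; test concentration not given here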
assay.setup: Huh7 HCV replicon, higher = more signal, called active from +8 up or from −8 down
Activity calls are given as the source filed them.
metric.name: z-score

Exercise: Which z-score reading was recorded for the compound O=C1C2C=CC(C(O)CCc3ccccc3)N(Nc3ccccc3F)C2C(=O)N1c1ccccc1 (configuration not stated) ?
Key: -0.381 (inactive)

Exercise: Reported z-score, compound "CC(C)N1C(=O)[C@@]2(Cc3ccccc31)c1ccccc1C(=O)N(Cc1ccccc1Cl)[C@H]2c1ccc(CO)cc1" : ____
Key: -2.27 (inactive)

Exercise: I'd like to know its z-score. The compound in question is "COc1ccc(CCNC(=O)[C@@]2(Sc3ccc(C)cc3)CC(=O)N(C(C)C)[C@@H]2c2ccc(CO)cc2I)cc1"
Key: -0.887 (inactive)

Exercise: Which z-score reading was recorded for the compound "O=C1O[C@@H](c2ccccc2)[C@@H](c2ccccc2)N2[C@@H](c3ccccc3OCCO)[C@]3(C(=O)Nc4ccccc43)[C@@H](C(=O)Nc3nc4ccccc4s3)[C@H]12" ?
Key: -5.91 (inactive)

Exercise: Entry "C=C(CCCC)C(=O)CC[C@@H](OC(=O)c1ccccc1-c1ccccc1C(=O)O)c1ccc(OCCO)cc1" : reported z-score = ?
Key: 0.142 (inactive)

Exercise: Reported z-score for "COC(=O)[C@@]1(Cc2ccc(OC)cc2)[C@H]2c3cc(C(=O)N4CCCC4)n(Cc4ccc(C)c(F)c4F)c3C[C@H]2CN1C(=O)c1ccccc1" : what is it?
Key: -2.92 (inactive)

Exercise: Report z-score for CCCCCN1CC=CC23O[C@@H]4C=CCCOC(=O)C4[C@H]2C(=O)N(CCCCCO)[C@@H]3C1=O (some centres not stated) please.
Key: 0.477 (inactive)

Exercise: Entry "[N-]=[N+]=NCc1ccccc1[C@@H]1OC(c2ccc(OCCCO)cc2)=N[C@]1(Cc1ccccc1)C(N)=O" has what z-score?
Key: -1.72 (inactive)

Exercise: Any idea what its z-score is? The compound is "C=CCOC(=O)[C@H]1[C@@H]2C(=O)O[C@@H](c3ccccc3)[C@@H](c3ccccc3)N2[C@@H](c2ccc(OCCOC(=O)[C@H]3C[C@H]4C(=O)N[C@@H](CCCCNC(C)=O)C(=O)N4[C@H]3c3cccc(OCCO)c3)cc2)[C@]12C(=O)Nc1ccccc12"
Key: -1.1 (inactive)

Exercise: Consider the compound "CCOC(=O)C1=CC[C@@H](c2ccccc2)N(S(=O)(=O)c2ccc(C)cc2)[C@H]1c1ccccc1C" and give its measured z-score.
Key: -2.81 (inactive)

Exercise: Look up z-score: "O=C1N[C@@H](Cc2ccccc2)C(=O)N2[C@@H]1C[C@@H](C(=O)O)[C@H]2c1cccc(OCCO)c1"
Key: -0.333 (inactive)

Exercise: If you can, please state the reported z-score value of OCCCC1=CC(c2cccs2)N(Cc2cc3c(cc2Br)OCO3)CC1 (configuration not stated) .
Key: -1.18 (inactive)

The measured values listed here are drawn from PubChem BioAssay.
